- system.name: NACHT, LRR and PYD domains-containing protein 3 (Homo sapiens, UniProt Q96P20)
- Sequence (Q96P20 whole entry, the tested form may be a part): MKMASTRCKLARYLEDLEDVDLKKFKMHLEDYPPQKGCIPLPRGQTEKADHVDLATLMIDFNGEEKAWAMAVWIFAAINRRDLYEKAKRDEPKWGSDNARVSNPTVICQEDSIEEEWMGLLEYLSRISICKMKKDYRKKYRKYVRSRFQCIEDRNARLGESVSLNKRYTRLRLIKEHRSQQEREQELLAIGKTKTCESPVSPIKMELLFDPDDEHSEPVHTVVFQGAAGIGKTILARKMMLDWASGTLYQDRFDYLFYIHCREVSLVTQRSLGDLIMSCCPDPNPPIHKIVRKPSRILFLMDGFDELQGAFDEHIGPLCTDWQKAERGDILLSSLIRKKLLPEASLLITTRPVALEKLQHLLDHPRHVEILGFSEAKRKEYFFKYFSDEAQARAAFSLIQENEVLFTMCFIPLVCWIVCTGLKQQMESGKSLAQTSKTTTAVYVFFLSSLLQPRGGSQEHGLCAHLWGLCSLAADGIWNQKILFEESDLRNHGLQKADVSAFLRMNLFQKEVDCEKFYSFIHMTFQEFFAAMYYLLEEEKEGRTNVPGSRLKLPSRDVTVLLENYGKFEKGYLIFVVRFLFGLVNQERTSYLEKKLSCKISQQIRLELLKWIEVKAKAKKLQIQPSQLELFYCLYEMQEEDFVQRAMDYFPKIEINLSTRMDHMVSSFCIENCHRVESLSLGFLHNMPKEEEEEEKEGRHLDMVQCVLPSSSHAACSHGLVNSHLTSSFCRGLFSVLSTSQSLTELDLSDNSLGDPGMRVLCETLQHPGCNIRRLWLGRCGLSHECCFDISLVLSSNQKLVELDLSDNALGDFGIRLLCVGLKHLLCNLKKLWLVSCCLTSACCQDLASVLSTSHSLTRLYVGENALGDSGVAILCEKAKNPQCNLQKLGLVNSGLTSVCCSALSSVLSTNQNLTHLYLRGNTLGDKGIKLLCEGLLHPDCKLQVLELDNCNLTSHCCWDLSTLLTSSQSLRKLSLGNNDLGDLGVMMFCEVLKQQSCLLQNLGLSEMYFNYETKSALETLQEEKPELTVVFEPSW
- assay.remarks: Inhibition of NLRP3 inflammasome activation in PMA-differentiated human THP-1 cells assessed as reduction in IL-1beta secretion pre-stimulated with PMA for 24 hrs followed by compound addition and measured after 30 mins by ELISA
observable: IC50 (µM)

a. O=C(O)CCCCCN1C(=O)/C(=C/c2c[nH]c3ccccc23)SC1=S
b. COc1ccc(N2C(=O)/C(=C\c3ccccc3C(F)(F)F)SC2=S)cc1
Query: Response body: label of entry with the larger IC50; valid values a , b . // caller expects the label of the chosen entry
Result: a
(a: 13.9 µM, b: 2.3 µM)

----------
- assay.remarks: Stability in human liver microsomes assessed as half-life at 1.5 uM measured upto 45 mins in presence of NADPH by LC-MS/MS analysis
- Type: ADME, Microsome
observable: half-life at 1.5 µM (h)

{"input.smiles": "O=C(c1ccc(F)cc1)C1CCN(CCn2c(=O)[nH]c3ccccc3c2=O)CC1", "reported.value": 1.68}
{"input.smiles": "COc1ccc(N2C(=O)/C(=C\\c3ccccc3C(F)(F)F)SC2=S)cc1", "reported.value": 2.07}

----------
- assay.remarks: Stability in human liver microsomes assessed as intrinsic clearance at 1.5 uM measured upto 45 mins in presence of NADPH by LC-MS/MS analysis
- Assay type: ADME, Microsome
- condition.description: read-out: CLH
observable: CLint scaled at 1.5 µM (mL/min/kg)

I. O=C(c1ccc(F)cc1)C1CCN(CCn2c(=O)[nH]c3ccccc3c2=O)CC1
II. COc1ccc(N2C(=O)/C(=C\c3ccccc3C(F)(F)F)SC2=S)cc1
Query: Field: entry with larger CLint scaled at 1.5 µM (options I / II ). Could you answer with the label of the item you picked?
Result: I
(I: 17.3 mL/min/kg, II: 11.2 mL/min/kg)
